# TARGET_ENTITY: Tyramine receptor (TyrR) (Drosophila melanogaster)
# Construct: expressed in transfected cells
# Sequence (P22270 27-601): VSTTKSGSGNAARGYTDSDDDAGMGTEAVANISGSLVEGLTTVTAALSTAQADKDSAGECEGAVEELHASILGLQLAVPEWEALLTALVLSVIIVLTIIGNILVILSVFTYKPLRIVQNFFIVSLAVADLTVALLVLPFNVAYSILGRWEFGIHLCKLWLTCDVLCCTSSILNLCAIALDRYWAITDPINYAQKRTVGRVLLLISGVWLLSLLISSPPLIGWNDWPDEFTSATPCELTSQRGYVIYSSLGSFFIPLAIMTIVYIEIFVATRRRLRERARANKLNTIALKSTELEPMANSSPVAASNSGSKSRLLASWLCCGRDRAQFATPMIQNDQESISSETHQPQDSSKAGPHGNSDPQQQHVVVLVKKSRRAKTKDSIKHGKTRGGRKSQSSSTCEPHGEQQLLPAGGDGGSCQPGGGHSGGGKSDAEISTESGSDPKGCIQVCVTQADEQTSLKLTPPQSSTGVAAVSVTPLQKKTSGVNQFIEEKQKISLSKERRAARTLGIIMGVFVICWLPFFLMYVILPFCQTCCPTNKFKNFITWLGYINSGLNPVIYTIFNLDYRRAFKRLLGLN
# EXPERIMENTAL_PROTOCOL: Effect on intracellular Ca2+ in cells expressing TyrR (Example 14)
# Type: cell-based
EXPERIMENTAL_READOUT: Effects Intracellular Ca2+ (Yes or No)

Before answering, review these 6 worked examples.
{"COMPOUND": "Cc1ccc(C(C)C)c(O)c1", "TARGET_ENTITY": "Tyramine receptor (TyrR) (Drosophila melanogaster)", "OBSERVED": "Yes"}
{"COMPOUND": "OCc1ccccc1", "TARGET_ENTITY": "Tyramine receptor (TyrR) (Drosophila melanogaster)", "OBSERVED": "No"}
{"COMPOUND": "CC(C)=CCC/C(C)=C/CO", "TARGET_ENTITY": "Tyramine receptor (TyrR) (Drosophila melanogaster)", "OBSERVED": "Yes"}
{"COMPOUND": "CC=Cc1ccc(OC)cc1", "TARGET_ENTITY": "Tyramine receptor (TyrR) (Drosophila melanogaster)", "OBSERVED": "Yes"}
{"COMPOUND": "CCC(=O)OCCc1ccccc1 [phenethyl proprionate]", "TARGET_ENTITY": "Tyramine receptor (TyrR) (Drosophila melanogaster)", "OBSERVED": "No"}
{"COMPOUND": "CCC(C)(O)CCCC(C)C (centres unmarked) [tetrahydrolinalool]", "TARGET_ENTITY": "Tyramine receptor (TyrR) (Drosophila melanogaster)", "OBSERVED": "Yes"}

Data request: Endpoint output: Effects Intracellular Ca2+ (Yes or No) of C=CC(C)(O)CCC=C(C)C (centres unmarked) . Value?
Data returned: Yes

Data request: Endpoint output: Effects Intracellular Ca2+ (Yes or No) of CC12CCC(CC1)C(C)(C)O2 . Value?
Data returned: Yes
